- Tested on: HCC 2998
- Experiment Summary: NCI tumour cell line growth inhibition, 48 h
Activity calls are given as the source filed them. No stated cut-off is given here; in the data, active = GI50 up to about 1.1 µM and inactive = higher.

| Compound | Tested System | GI50 |
| --- | --- | --- |
| CSc1nc(Br)nc2c1ncn2C1CC(Oc2ccc(C)cc2)C(COc2ccc(C)cc2)O1 (stereo not given) | HCC 2998 | > 100 µM (inactive) |
| NC1=NN(c2ccccc2)C(=O)C1C(=O)C(=O)NC1C2CC3CC(C2)CC1C3 (stereo not given) | HCC 2998 | > 100 µM (inactive) |
| CSc1nc(Nc2ccccc2Cl)c2c(N)nn(C)c2n1 | HCC 2998 | > 100 µM (inactive) |
| COc1ccc2c(c1)C(=O)Cc1ccccc1CC2 | HCC 2998 | > 100 µM (inactive) |
| COc1ccc(-c2cc(O)c3cc4c(cc3n2)OCO4)cc1OC | HCC 2998 | > 100 µM (inactive) |
| N#CSC1CCCCNC1=O (stereo not given) | HCC 2998 | 16.4 µM (inactive) |
| COC(=O)C1CCC(=O)N1C(c1ccc(OC)cc1)c1ccc(OC)cc1 (stereo not given) | HCC 2998 | > 100 µM (inactive) |
| CCSc1cc2c(cc1O)CC[C@@H]1[C@@H]2CC[C@]2(C)[C@@H](O)CC[C@@H]12 | HCC 2998 | 13.9 µM (inactive) |
| Cc1ccc(S(=O)(=O)n2c3c(c4ccccc42)CCN2C[C@H]([C@H](C)Br)CC[C@@H]32)cc1 | HCC 2998 | 82.8 µM (inactive) |
| C=C1C(=O)O[C@H]2[C@H]1CC(=O)/C(C)=C/CC[C@@]1(C)O[C@@H]21 | HCC 2998 | 2.4 µM (inactive) |
